# Tested on: A498 renal
# assayOverview: NCI-60 one-dose screen, 48 h (100 = growth as untreated, 0 = no growth, -100 = all killed)
# measurementContext: 10 µM unless noted
Compounds without any hit were thinned out: in the full panel of roughly 83,000, 20% have a hit.
Response field class: string, computed from recorded growth by ranges low = under 30%, medium = from 30% up to 80%, high = 80% and over

molecule	answerLabel
CN(Cc1ccccc1)S(=O)(=O)/N=C1\NC(=O)NC1=C(Cl)Cl	medium

Textbook exercise: identify the category of the molecule given here, COc1cc(-c2nc3sccn3c2-c2ccnc(S(C)(=O)=O)n2)ccc1F , according to its measured value.
high

Textbook exercise: identify the category of the molecule given here, CCO/C=N/C1=C(C#N)C(c2ccc(OC)cc2)c2sc3c(C)cccc3c2O1 (centres undefined) , according to its measured value.
low

Attribution: PubChem BioAssay (NCI)
